Record form. Attribute: melting point. Fill in for each entry.

Record melting point per entry; entries follow.
1. Fc1cc2nc(S)[nH]c2cc1F
2. Cc1cc(=O)n2nc(Br)sc2n1

Out:
1: 291 to 293 °C; 2: 167 to 169 °C

Record melting point per entry; entries follow.
1. NN1CCN(C(c2ccccc2)c2ccccc2)CC1
2. CC1COCCN1c1ccc(N)cc1 (stereo not drawn)
3. Cc1cc(C=O)c(C)n1-c1cccc([N+](=O)[O-])c1
4. Nc1cc(C2CCCC2)nn1-c1ccccc1
5. Cc1cc(N)nc(S)n1

Out:
1. 108 to 110 °C
2. 89 to 91 °C
3. 149 to 151 °C
4. 80 to 82 °C
5. 295 to 297 °C

Record melting point per entry; entries follow.
1. Clc1nccc2ccn(Cc3ccccc3)c12
2. Nc1nc2ccccc2n1-c1ccccc1
3. CCCn1nc(C)c(C(=O)O)c1C
4. Cc1n[nH]c(O)c1C#N

Out:
["75 to 77 °C", "148 to 150 °C", "113 to 115 °C", "229 to 231 °C"]

---

Record form. Attribute: melting point. Fill in for each entry.

molecule: Cc1sc2nc(S)[nH]c(=O)c2c1C
quantity_kind: melting point
measured: 328 to 330 °C
--
molecule: CC(NC(=O)OC(C)(C)C)c1ccc(CN)cc1 (centres undefined)
quantity_kind: melting point
measured: 78 to 80 °C
--
molecule: Cn1nnnc1S(C)(=O)=O
quantity_kind: melting point
measured: 64 to 66 °C

Record melting point per entry; entries follow.
1. CCOc1cc(/C=C(\C(=O)O)c2ccccc2)ccc1O
2. CC1=NN(c2cccc(C(F)(F)F)c2)C(=O)C1
3. O=C1CC(CO)CN1CCc1ccccc1 (centres undefined)

Out:
1. 186 to 188 °C
2. 127 to 129 °C
3. 65 to 67 °C

Record melting point per entry; entries follow.
1. Sc1nnc(NCc2ccco2)s1
2. C=CC(=O)Nc1ccccc1OC
3. COc1cc(-c2nc(CCl)cs2)ccc1O
4. O=c1[nH]c(CN2CCNCC2)nc2ccccc12

Out:
["124 to 126 °C", "68 to 70 °C", "86 to 88 °C", "167 to 169 °C"]

Record melting point per entry; entries follow.
1. CCOc1ccc(-c2csc(=O)[nH]2)cc1
2. CN(C)C(=O)c1c[nH]c2ccccc12

Out:
["222 to 224 °C", "234 to 236 °C"]

Record melting point per entry; entries follow.
1. O=C(O)CCc1cncc(F)c1
2. Cc1c(C(=O)O)cnn1C(C)(C)C

Out:
["165 to 167 °C", "132 to 134 °C"]

---

Record form. Attribute: melting point. Fill in for each entry.

# annotated cases, reported melting point shown
compound: N#Cc1ccccc1Oc1ccc(N)cn1
melting point: 92 to 94 °C
//
compound: CC(=O)c1cccc(OCC(=O)O)c1
melting point: 119 to 121 °C
//
compound: Cc1[nH]c2ccccc2c1C1CCNCC1
melting point: 222 to 224 °C
//
compound: Cc1cc(C)c(NC(=O)C(C)Cl)c(Cl)c1 (configuration not stated)
melting point: 157 to 159 °C
//
compound: O=C1Nc2ccc(S(=O)(=O)Cl)cc2C1(Cl)Cl
melting point: 134 to 136 °C

Record melting point per entry; entries follow.
1. O=C(O)c1cc2ccc(OC(F)(F)F)cc2[nH]1
2. O=C1CC(NC(=O)C(F)(F)F)c2ccccc21 (configuration not stated)

Out:
160 to 162 °C
149 to 151 °C

---

Record form. Attribute: melting point. Fill in for each entry.

# annotated cases, reported melting point shown
molecule: NNC(=O)C(=O)NCc1ccc(Cl)cc1
melting point: 191 to 193 °C

molecule: O=C(O)c1cc(S(=O)(=O)N2CCOCC2)ccc1Cl
melting point: 183 to 185 °C

molecule: O=C(O)c1nccnc1C(=O)Nc1ccc(F)cc1
melting point: 177 to 179 °C

molecule: OC(CCc1ccccc1)CCc1ccccc1
melting point: 44 to 46 °C

molecule: O=S(=O)(Cl)c1sc(Cl)nc1Cl
melting point: 57 to 59 °C

Record melting point per entry; entries follow.
1. O=S1(=O)CCC(Nc2ccccc2)C1 (centres undefined)
2. CC(C)(CCCc1ccccc1)C(=O)O
3. Cc1nnc(SCCC(=O)O)[nH]1
4. Cn1ncc(C(=O)O)c1C1CC1
5. Cc1ccc2nc3ccccc3c(Cl)c2c1
6. COc1ccc(Br)cc1CC(=O)O
7. Cc1cc2[nH]c(=O)c3ccccc3n2n1

Out:
["119 to 123 °C", "48 to 50 °C", "131 to 133 °C", "104 to 106 °C", "121 to 123 °C", "132 to 134 °C", "278 to 282 °C"]

Record melting point per entry; entries follow.
1. Cc1cc(C)c([N+](=O)[O-])c(=O)[nH]1
2. Cc1cc(C)n2cnc(C(N)=O)c2n1

Out:
179 to 181 °C
303 to 305 °C

---

quantity_kind: melting point

# annotated cases, reported melting point shown
molecule: O=C(O)c1ccc(Cl)c(S(=O)(=O)NCc2ccco2)c1
measured: 133 to 135 °C
//
molecule: CNc1ncc(I)cn1
measured: 134 to 136 °C
//
molecule: NS(=O)(=O)CCS(=O)(=O)c1ccc(F)cc1
measured: 173 to 175 °C
//
molecule: Nc1cc(Br)cc(Cl)c1O
measured: 79 to 81 °C

Record melting point per entry; entries follow.
1. COc1ccc(S(=O)(=O)N2CCCCC2)cc1NC(=O)CCl
2. Cn1cc(S(N)(=O)=O)c2ccccc21
3. CCOc1ccccc1-c1csc(N)n1
4. Cc1cc(N)n(C2CCN(C)CC2)n1

Out:
115 to 130 °C
194 to 196 °C
209 to 211 °C
89 to 91 °C

Record melting point per entry; entries follow.
1. CS(=O)(=O)Cc1nc(CCl)cs1
2. CCN(Cc1ccccc1)S(=O)(=O)c1cc(C(=O)O)ccc1OC
3. O=S(=O)(Cl)Cc1ccc2ccccc2c1
4. CCc1cccc(CC)c1-n1ccnc1S

Out:
80 to 82 °C
102 to 105 °C
97 to 99 °C
196 to 198 °C

Record melting point per entry; entries follow.
1. COC(=O)c1cc(Cl)c(=O)[nH]c1C
2. O=C(O)CC1Sc2ccc(Cl)cc2NC1=O (stereo unspecified)
3. O=C(O)C1(c2c(Cl)cccc2Cl)CC1
4. Cc1cc(C)nc(-n2nc(C)cc2N)n1
5. O=C(O)CCn1cnc2cc(F)c(F)cc21
6. O=S(CCCl)c1cc(Cl)ccc1Cl (stereo unspecified)
7. O=C(Cc1cccc(F)c1)c1cccc(F)c1
8. CCC(NC(N)=O)C(=O)O (stereo unspecified)

Out:
["239 to 241 °C", "240 to 242 °C", "216 to 218 °C", "173 to 175 °C", "157 to 159 °C", "68 to 70 °C", "49 to 51 °C", "174 to 176 °C"]

---

Record form. Attribute: melting point. Fill in for each entry.

# annotated cases, reported melting point shown
molecule: Nc1ccc(SCc2ccccc2)cn1
melting point: 94 to 96 °C
//
molecule: COc1ccc2ccc(O)cc2c1
melting point: 116 to 119 °C
//
molecule: CN(CCOc1ccccc1F)C(=O)CCl
melting point: 68 to 70 °C
//
molecule: CC(C)C(NS(=O)(=O)c1ccccc1F)C(=O)O (centres undefined)
melting point: 159 to 161 °C
//
molecule: CC(C)(C)OC(=O)NC1CCCCC1(C)C(=O)O (centres undefined)
melting point: 149 to 151 °C
//
molecule: OCc1cn2cc(Cl)cc(Cl)c2n1
melting point: 177 to 179 °C

Record melting point per entry; entries follow.
1. CN(C)S(=O)(=O)c1ccc(Cl)c(C(=O)O)c1
2. Cc1nccn1-c1cc(C(=O)O)c2ccccc2n1
3. O=C(O)Cc1n[nH]c2ccccc12

Out:
1: 181 to 183 °C; 2: 229 to 231 °C; 3: 167 to 169 °C

Record melting point per entry; entries follow.
1. CCOC(=O)c1cnccn1
2. C=CS(=O)(=O)c1cccc(Br)c1
3. CC(Nc1ccccn1)c1ccco1 (centres undefined)
4. O=S(=O)(c1ccc2[nH]c(S)nc2c1)N1CCOCC1
5. COc1ccc(C(=O)NCCCC(=O)O)cc1
6. COc1ccccc1C(N)(C(=O)O)C(F)(F)F (centres undefined)

Out:
["48 to 50 °C", "50 to 52 °C", "136 to 138 °C", "285 to 287 °C", "122 to 124 °C", "97 to 99 °C"]

Record melting point per entry; entries follow.
1. O=C(O)c1cc([N+](=O)[O-])cc(Cl)c1F
2. NC(CC(=O)N1CCOCC1)=NO

Out:
["180 to 182 °C", "147 to 149 °C"]
